B1: glmS ribozyme (parent)
chain: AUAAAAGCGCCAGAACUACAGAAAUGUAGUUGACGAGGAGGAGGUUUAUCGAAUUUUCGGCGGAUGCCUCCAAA

Variants of: B1
assay_info: kcat; higher = faster cleavage; RNA array
assay_context: with glucosamine-6-phosphate
This sample holds only a part of the variants without activity.
experimental_endpoint: kcat (s⁻¹)
// note: answer is a bare numeric in s⁻¹

Below are worked cases with known answers.
{"columns": ["macromolecule_sequence", "value"],
 "data": [
  ["AUAAAAGCGCCAGAACUACAGAAAUGUAGUUGACGAGGAGUAGGUCUAUCGAAUUUUCGGCGGAUGCCUCCAAA [G41U U46C]", "8.91e-05"],
  ["AUAAAAGCGCCAGAACUACAGAAAUGUAGUUGACGAGGAGGAGGUUUAUCGAAUCUUCGGCGGCUGCCUCCAAA [U55C A64C]", "1.63e-05"],
  ["AUAAAAGCGCCAGAACUACAGAAAUGUAGUUGACGAGGAGGAGGUUUAUCGUAUUGUCGGCGGAUGCCUCCAAA [A52U U56G]", 0.000175]
]}

Inquiry: Give the measured kcat of AUAAAAGCGCCAGAACUACAGAAAUGUAGUUGACGAGGAGGAGGUUUAUCGAAUUUGCGGGGGAUGCCUUCAAA [U57G C61G C70U] .
Reply text: 2.66e-05

Inquiry: Give the measured kcat of AUAAAAGCGCCUGAACUACAGAAAUGUAGUUGACGAGGAGGAGGUUUAUCGAAUUUUCGGCGGAUGCCUUCAAA [A12U C70U] .
Reply text: 0.00743

Inquiry: Give the measured kcat of AUAAAAGCGCCAGAACUACAGAAAUGUAGGUGACGGGGAGGAGGUUUAUCGAAUUUUCGGCGGAUGCCUCGAAA [U30G A36G C71G] .
Reply text: 1.69e-05

Inquiry: Give the measured kcat of AUAAAAGCGCCAGGACUACAGAAAUGUAGUUGACGAGGAGGAGGUUUAUCGAAUUUUCGGCGGAUGCCGCCAAA [A14G U69G] .
Reply text: 0.000107

Inquiry: Give the measured kcat of AUAAAAGCGCCAGAACUACAGAAAUGUAGUUGACGAGGAGGAGUGUUAUCGAAUUUUCGGCGGAUGCCUCCAAA [G44U U45G] .
Reply text: 0.0224

Inquiry: Give the measured kcat of AUAAAAGCGCCAGAACUACAGAAAUGUAGUUGACGAGGAGGAGGUGCAUCGAAUUUUCGGCGGAUGCCUCCAAA [U46G U47C] .
Reply text: 0.00353

Inquiry: Give the measured kcat of AUAAAAGCGCCAGAACUACAGAAAUGUAUUUGACGAGGAGGAGGUUAAUCGAAUUUUCGGCGGAUGCCUCCAAA [G29U U47A] .
Reply text: 0.00313

Inquiry: Give the measured kcat of AUAAAAGUGCCAGAACUACAGAAAUGUAGUUGACGAGGAGGAGGUUUAUCGAAUUUUUGGCGGAUGCAUCCAAA [C8U C58U C68A] .
Reply text: 2.49e-05

Inquiry: Give the measured kcat of AUAAAAGCGCCAGCACUACAGAAAUGUAGUUGACGAGGAGGAGGUUUAUCGAAUAUUCGGCGGAUGCCUCCAAA [A14C U55A] .
Reply text: 0.00676

Inquiry: Give the measured kcat of AUAAAAGCGCCAGAACUACAGAAAUGUAGUUGACGAGGAGGAGAUGUAUCGAAUUUUCGGCGGAUGCCUCCAAA [G44A U46G] .
Reply text: 0.000265
